- assay_target: S. aureus RNase P (RnpA+rnpB) (Staphylococcus aureus, UniProt P0A0H5)
- experiment_description: RNase P activity assay (precursor tRNA processing)
- Format: biochemical
- condition_label: ptRNATyr processing, gel densitometry; read-out: RNase P IC50
Consider the following compounds; for each one, report its IC50.

So for `Cc1ccccc1OCC(=O)NNC(=S)NC(=O)c1ccco1` , the logged IC50 turned out to be > 500 µM

Field IC50 (entry `Cc1occc1C(=O)NNC(=S)NC(=O)COc1ccc(Cl)cc1Cl` ) reads 75 µM

Sure, the documented IC50 for `Cc1ccc(OCc2ccc(C(=O)NNC(=S)NCC(C)C)o2)c(C)c1` is > 500 µM

// sample `Cc1ccoc1C(=O)NC(=S)NNC(=O)COc1ccc(C(C)C)cc1` , its IC50 was 150 µM

IC50 recorded for this compound, `O=C(/C=C/c1ccccc1)NC(=S)NNC(=O)c1ccco1` , is 75 µM

The reported value for `Cc1ccc(OCC(=O)NNC(=S)NC(=O)c2ccc(Br)o2)c(C)c1` in terms of IC50 is 75 µM

Note to self: IC50 recorded for `COc1ccc2cc(C(=O)NNC(=O)COc3ccc(C(C)C)cc3)[nH]c2c1` was 80 µM

Consider `CC(C)c1ccc(OCC(=O)NNC(=S)NC(=O)c2ccoc2)cc1` . Its measured IC50 is 150 µM

Record `COc1ccc(C(=O)NC(=S)NNC(=O)c2ccco2)cc1` , field IC50: 180 µM

---

Task for the reader: assign each of the following molecules its reported pIC50.
- assay_target: RnpA (Staphylococcus aureus, UniProt P0A0H5)
- experiment_description: RnpA mRNA degradation activity assay
- Assay type: biochemical
- condition_label: RnpA mRNA degradation, gel densitometry; read-out: RnpA IC50
pIC50: −log10 of the molar value.

Here `CC(C)c1ccccc1OCC(=O)NNC(=S)NC(=O)c1ccccc1OCCOc1ccccc1` was tested on RnpA (Staphylococcus aureus, UniProt P0A0H5), and its pIC50 came to < 3.30

RnpA (Staphylococcus aureus, UniProt P0A0H5) assay, molecule `O=C(COc1ccc(Cl)cc1Cl)NNC(=S)NC(=O)c1ccco1` , recorded pIC50 = < 3.30

Summary line: `CCCCC(=O)Nc1ccc(C(=O)NNC(=S)NC(=O)c2ccco2)cc1` , RnpA (Staphylococcus aureus, UniProt P0A0H5), reported pIC50 = 4.10

Hey, RnpA (Staphylococcus aureus, UniProt P0A0H5) data for `CC(C)(C)c1ccc(OCC(=O)NNC(=S)NC(=O)c2ccco2)c(Br)c1` : pIC50 came out at < 3.30

Form field pIC50 for item `CC(C)c1ccc(OCC(=O)NNC(=S)NC(=O)c2cc3ccccc3s2)cc1` on RnpA (Staphylococcus aureus, UniProt P0A0H5): 4.30

Simply: `CCCOc1ccc(C(=O)NNC(=S)NC(=O)c2ccco2)cc1` , RnpA (Staphylococcus aureus, UniProt P0A0H5), pIC50 = < 3.30

// assay RnpA (Staphylococcus aureus, UniProt P0A0H5), entry `Cc1ccoc1C(=O)NC(=S)NNC(=O)COc1ccc(C(C)C)cc1` , pIC50 value = 4.70

Kindly note: RnpA (Staphylococcus aureus, UniProt P0A0H5), `COc1ccccc1C(=O)NC(=S)NNC(=O)COc1ccc(C(C)C)cc1` , pIC50 value reported: 3.60

For the molecule `Cc1cc(Cl)ccc1OCC(=O)NNC(=S)NC(=O)/C=C/c1ccco1` , the measured pIC50 on RnpA (Staphylococcus aureus, UniProt P0A0H5) was 3.76

Readout pIC50 for `CC(C)c1ccc(OCC(=O)NNC(=O)c2cc3ccccc3n2C)cc1` , test system RnpA (Staphylococcus aureus, UniProt P0A0H5), was < 3.30

Measured pIC50 (RnpA (Staphylococcus aureus, UniProt P0A0H5)), entry `COc1ccc(OCC(=O)NNC(=S)NC(=O)c2ccc(Br)o2)cc1` : < 3.30

The molecule CCOc1ccc(C(=O)NC(=S)NNC(=O)COc2ccc(C(C)CC)cc2)cc1 (stereo not shown) , when measured on RnpA (Staphylococcus aureus, UniProt P0A0H5), yielded pIC50 of < 3.30

Known value: RnpA (Staphylococcus aureus, UniProt P0A0H5) pIC50 of the molecule `O=C(/C=C/c1ccccc1)NC(=S)NNC(=O)c1ccco1` equals 4.05

Entry CC(Oc1ccc2ccccc2c1)C(=O)NNC(=S)NC(=O)c1ccco1 (stereo not shown) under RnpA (Staphylococcus aureus, UniProt P0A0H5) had pIC50 of < 3.30

Kindly note: RnpA (Staphylococcus aureus, UniProt P0A0H5), `Cc1ccccc1OCC(=O)NNC(=S)NC(=O)c1ccco1` , pIC50 value reported: < 3.30

Measured pIC50 (RnpA (Staphylococcus aureus, UniProt P0A0H5)), entry `CCOc1ccccc1C(=O)NNC(=S)NC(=O)c1ccco1` : < 3.30

Result for `CCc1ccc(OCc2ccc(C(=O)NNC(=S)NCC(C)C)o2)cc1` , tested on RnpA (Staphylococcus aureus, UniProt P0A0H5), pIC50: < 3.30

# pIC50 measured on RnpA (Staphylococcus aureus, UniProt P0A0H5) for item `Cc1ccccc1OCC(=O)NNC(=S)NC(=O)/C=C/c1ccco1` = 3.66

Entry `CC(C)COc1ccc(C(=O)NNC(=S)NC(=O)c2ccco2)cc1` under RnpA (Staphylococcus aureus, UniProt P0A0H5) had pIC50 of < 3.30

---

- System: Staphylococcus aureus strain UAMS-1
- experiment_description: Antimicrobial susceptibility testing (MIC, broth microdilution)
- Type: cell-based
- condition_label: Staphylococcus aureus, UAMS1, 18 h, S. aureus UAMS-1, Mueller Hinton broth, 37° C., read-out: MIC
property_label: MIC (µg/mL)
Your answer should be a plain number; it is taken to be in µg/mL.

So, COc1ccc(C(=O)NC(=S)NNC(=O)c2ccco2)cc1 [ST5254089] ? Its MIC was 64

Field MIC (entry CC(C)c1ccc(OCC(=O)NNC(=S)NC(=O)/C=C/c2cc3ccccc3o2)cc1 [MC-190047] ) reads 64

// field: MIC; key: COc1ccc2[nH]c(C(=O)NC(=S)NNC(=O)COc3ccc(C(C)C)cc3)cc2c1 [MC-190060] ; value = 32

# compound CC(C)c1ccc(OCC(=O)NNC(=S)NC(=O)c2cc3ccc(Cl)cc3[nH]2)cc1 [MC-190066] ; its MIC = 16

Value of measured MIC for the entry CC(C)c1ccc(OCC(=O)NNC(=S)NC(=O)c2cccs2)cc1 [MC-190029] : 128

Per the records, this compound ( Cc1cc(Cl)ccc1OCC(=O)NNC(=S)NC(=O)/C=C/c1ccco1 [ST5524187] ) has MIC equal to 32

Short answer for COc1cccc(OC)c1C(=O)NC(=S)NNC(=O)c1ccco1 [ST5638707] : MIC was 128

compound CC(C)(C)c1ccc(OCC(=O)NNC(=S)NC(=O)c2ccco2)c(Br)c1 [ST5524527] , MIC observed: 8

For record CC(C)COc1ccc(C(=O)NNC(=S)NC(=O)c2ccco2)cc1 [ST5529685] the listed MIC is 64

The measured MIC associated with CC(C)c1ccc(OCC(=O)NNC(=O)c2cc3ccccc3[nH]2)cc1 [MC-190051] reads 128

Note to self: MIC recorded for O=C(COc1ccc(Cl)cc1Br)NNC(=S)NC(=O)c1ccco1 [ST5525958] was 32

Just so you know, measured MIC for CC(C)c1ccc(CNc2c(NCCc3ccco3)c(=O)c2=O)cc1 [MC-190092] came out at 256

---

- assay_target: S. aureus RNase P (RnpA+rnpB) (Staphylococcus aureus)
- Sequence (P0A0H5 1-117): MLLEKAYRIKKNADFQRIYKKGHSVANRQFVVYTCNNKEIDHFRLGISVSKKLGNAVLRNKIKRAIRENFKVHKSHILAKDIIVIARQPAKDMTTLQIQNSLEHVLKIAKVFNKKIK
- experiment_description: RNase P activity assay (precursor tRNA processing)
- Type: biochemical
- condition_label: RNase P IC50, ptRNATyr processing, gel densitometry
property_label: IC50

Memo: `COc1ccccc1C(=O)NNC(=S)NC(=O)c1ccco1` , reported IC50: > 500 µM

Field IC50 (entry `O=C(COc1ccc(Cl)cc1Cl)NNC(=S)NC(=O)c1ccco1` ) reads 80 µM

---

Give pIC50 for every item shown.
- assay_target: S. aureus RNase P (RnpA+rnpB) (Staphylococcus aureus)
- Sequence (P0A0H5 1-117): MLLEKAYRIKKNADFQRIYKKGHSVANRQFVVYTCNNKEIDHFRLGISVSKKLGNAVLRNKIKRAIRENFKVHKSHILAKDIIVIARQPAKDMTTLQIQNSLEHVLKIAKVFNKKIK
- experiment_description: RNase P activity assay (precursor tRNA processing)
- Assay type: biochemical
- condition_label: ptRNATyr processing, gel densitometry; read-out: RNase P IC50
# log scale: pIC50 equals minus log10 of the concentration in mol/L

Short answer for `CC(C)c1ccc(OCC(=O)NNC(=S)NC(=O)c2c[nH]c3ccccc23)cc1` : pIC50 was 4.05

Lab note: measured pIC50 of `CC(C)c1ccccc1OCC(=O)NNC(=S)NC(=O)/C=C/c1cccs1` was 3.96

# pIC50 (compound: `Cc1cc(OCC(=O)NNC(=S)NC(=O)c2ccc(Br)o2)ccc1Cl` ) is 3.66

Input `Cc1ccoc1C(=O)NNC(=O)COc1ccc(C(C)C)cc1` . Output pIC50: 3.64

Lab book: pIC50 of `CC(C)c1ccc(OCC(=O)NNC(=S)NC(=O)c2ccco2)c(Br)c1` noted as 3.46

Briefly, pIC50 measured for `COc1ccccc1C(=O)NNC(=O)COc1ccc(C(C)C)cc1` : 4.12

Input `CC(C)c1ccc(OCC(=O)NNC(=O)c2cc3ccccc3[nH]2)cc1` . Output pIC50: 5.70

Quick note, pIC50 for `CC(C)c1ccc(OCC(=O)NNC(=S)NC(=O)c2cccs2)cc1` landed at 3.42

Query `CC(C)c1ccc(OCC(=O)NNC(=S)NC(=O)c2ccsc2)cc1` yields pIC50 of 3.40

pIC50 recorded for this compound, `O=C(COc1ccc(Cl)cc1Br)NNC(=S)NC(=O)c1ccco1` , is 3.90

response.value for `CCCOc1ccccc1C(=O)NNC(=S)NC(=O)c1ccco1` (field: pIC50) = 4.02

Value of measured pIC50 for the entry `CCOc1ccc(C(=O)NC(=S)NNC(=O)COc2cc(C)ccc2C(C)C)cc1` : 3.64
